assay: Partition coefficient (logP); type: physicochemical; conditions: octanol/water
value kind: logP
Just the number.

Exercise: So what's the measured logP for this one? `CC(C)Oc1ccccc1N1CCN(Cc2cccc(C(=O)N3CCCCC3)c2)CC1`
Key: 4

----------
biological target: D(1B) dopamine receptor (Rattus norvegicus, UniProt P25115)
Sequence (P25115 whole entry): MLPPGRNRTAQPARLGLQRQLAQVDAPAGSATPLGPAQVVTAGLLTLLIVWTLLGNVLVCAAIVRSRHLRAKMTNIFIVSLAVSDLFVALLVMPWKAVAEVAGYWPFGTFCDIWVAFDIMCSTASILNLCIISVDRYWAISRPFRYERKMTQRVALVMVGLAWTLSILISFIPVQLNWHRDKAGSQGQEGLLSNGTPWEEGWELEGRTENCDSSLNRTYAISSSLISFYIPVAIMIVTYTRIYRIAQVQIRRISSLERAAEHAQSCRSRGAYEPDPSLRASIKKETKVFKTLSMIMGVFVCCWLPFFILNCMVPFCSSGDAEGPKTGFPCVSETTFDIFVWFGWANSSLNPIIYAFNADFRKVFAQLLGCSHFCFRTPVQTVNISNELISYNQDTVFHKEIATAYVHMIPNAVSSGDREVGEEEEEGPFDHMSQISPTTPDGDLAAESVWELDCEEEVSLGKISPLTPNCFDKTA
pKi: −log10 of the molar value.
value kind: pKi

Exercise: Checklist item: pKi tested on D(1B) dopamine receptor (Rattus norvegicus, UniProt P25115), entry `CC(C)Oc1ccccc1N1CCN(Cc2cccc(C(=O)N3CCCCC3)c2)CC1` , value?
Key: < 5.30

----------
target: 5-hydroxytryptamine receptor 1B (Rattus norvegicus)
Sequence (P28564 whole entry): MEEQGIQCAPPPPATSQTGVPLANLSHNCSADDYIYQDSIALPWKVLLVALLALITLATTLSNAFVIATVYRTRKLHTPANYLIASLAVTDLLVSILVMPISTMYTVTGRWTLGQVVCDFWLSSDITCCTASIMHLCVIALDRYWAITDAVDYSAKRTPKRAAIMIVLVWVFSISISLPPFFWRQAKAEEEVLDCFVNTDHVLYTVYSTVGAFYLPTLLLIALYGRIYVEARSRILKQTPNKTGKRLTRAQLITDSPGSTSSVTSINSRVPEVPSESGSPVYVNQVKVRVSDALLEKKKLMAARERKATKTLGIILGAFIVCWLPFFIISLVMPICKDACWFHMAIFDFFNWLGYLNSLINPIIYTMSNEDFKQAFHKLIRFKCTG
value kind: Ki (µM)
State just the number; it will be interpreted in µM.

Exercise: Entry CC(C)Oc1ccccc1N1CCN(Cc2cccc(C(=O)N3CCCCC3)c2)CC1 [MAZAPERTINE] : reported Ki = ?
Key: 2.88
